Each item that follows carries a reported IC50.
biological target: Human SARS-CoV S (SARS-CoV, UniProt P59594 14-1190); assay: flow cytometry SVNA: VHH-Fc inhibits S binding to ACE2 on Vero E6 cells

BINDER: NRCoV2-20 VHH-Fc (Fc fusion, bivalent VHH-Fc) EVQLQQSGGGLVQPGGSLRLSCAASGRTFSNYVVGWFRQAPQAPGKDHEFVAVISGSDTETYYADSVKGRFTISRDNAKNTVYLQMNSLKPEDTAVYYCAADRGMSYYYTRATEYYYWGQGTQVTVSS
IC50, nM: 10.3
//
BINDER: NRCoV2-MRed04 VHH-Fc (Fc fusion, bivalent VHH-Fc) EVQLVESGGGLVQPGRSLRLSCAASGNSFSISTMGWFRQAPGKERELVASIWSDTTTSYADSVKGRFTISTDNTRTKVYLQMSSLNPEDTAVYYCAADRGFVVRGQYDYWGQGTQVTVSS
IC50, nM: 24.6
